The reported numbers originate from the supplement of paper PMC10567573.

Here, each record is paired with measured protein stability index data.
B1: DVL3 (parent)
chain: HPDPAPFCADNPSELPPPMERTGG

Variants of: B1
Protocol description: protein stability index of a GFP-peptide fusion (GPS, HEK-293T) (PSI 1-6); higher = more stable;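 note: lentivirally expressed fusions sorted by FACS into six bins by GFP to DsRed ratio, PSI derived from sequencing read proportions per bin multiplied by bin number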
Test conditions: c terminus: a fixed tail appended
The response must contain the number and no unit.

Here are 3 variants together with their reported answers.
>>> result("HPDWAPFCADNPSELPPPMERTGG [P4W]")
5.19
>>> result("HFDPAPFCADNPSELPPPMERTGG [P2F]")
4.57
>>> result("HPDPAPFCADNPSELPHPMERTGG [P17H]")
2.61

Task: GET /values?readout=protein stability index&item= HPDKAPFCADNPSELPPPMERTGG [P4K]
Result: 5.4

Task: Value lookup for protein stability index; key = HPDPAPFCADNPSELPPIMERTGG [P18I]
Result: 2.82

Task: What does the data say about its protein stability index? Entry: HPDPAPFCADNPSELPPCMERTGG [P18C]
Result: 2.94

Task: Record request: protein stability index value, item HPDPAKFCADNPSELPPPMERTGG [P6K]
Result: 3.33

Task: Using the record for HPWPAPFCADNPSELPPPMERTGG [D3W] , report its protein stability index.
Result: 2.81

Task: Dear colleague, I am looking for the recorded protein stability index of the following variant: MPDPAPFCADNPSELPPPMERTGG [H1M]
Result: 4.93

Task: Recorded protein stability index of HPDPAPFCADNPSELPYPMERTGG [P17Y] , please.
Result: 2.86

Task: // protein stability index lookup, key: HPDRAPFCADNPSELPPPMERTGG [P4R]
Result: 4.78

Task: I would be grateful if you could share the reported protein stability index for HPDPAPFCADNPSELPPWMERTGG [P18W] .
Result: 2.35

Task: Return reported protein stability index; argument: HPDPQPFCADNPSELPPPMERTGG [A5Q]
Result: 3.42

Task: Recorded protein stability index of HPDPGPFCADNPSELPPPMERTGG [A5G] , please.
Result: 2.87

Task: // returns reported protein stability index for input HPDPAPFGADNPSELPPPMERTGG [C8G]
Result: 4.65

Task: // lookup protein stability index for HPDPAEFCADNPSELPPPMERTGG [P6E]
Result: 4.91

Task: Item HPDPAQFCADNPSELPPPMERTGG [P6Q] has what recorded protein stability index?
Result: 4.12

Task: # get_value(readout='protein stability index', item= HPDPAPFCADNPSELPIPMERTGG [P17I] )
Result: 2.63

Task: Need protein stability index, item HQDPAPFCADNPSELPPPMERTGG [P2Q]
Result: 1.54

Task: // returns reported protein stability index for input HWDPAPFCADNPSELPPPMERTGG [P2W]
Result: 3.03

Task: Would you mind telling me what protein stability index value was observed for HPDPAPFCADNPSELPPQMERTGG [P18Q] ?
Result: 3.42

Task: Please give the measured protein stability index for this variant: HPDPAPFCADNKSELPPPMERTGG [P12K]
Result: 2.88

Task: What value of protein stability index has been reported for the following variant? HPDPAPFCADNPSELPPVMERTGG [P18V]
Result: 3.15

Task: Report protein stability index for HPDPAPFCADNPSELAPPMERTGG [P16A] please.
Result: 3.04
